# credit: the supplement of paper PMC10567573

B1: MED27 (parent)
chain: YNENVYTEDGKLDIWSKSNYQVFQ

- Variants of: B1
- procedure_summary: protein stability index of a GFP-peptide fusion (GPS, HEK-293T) (PSI 1-6); higher = more stable;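 further: lentivirally expressed fusions sorted by FACS into six bins by GFP to DsRed ratio, PSI derived from sequencing read proportions per bin multiplied by bin number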
- condition_summary: c terminus: a fixed tail appended
Quick rule for you: protein stability index at 2 or higher means 1 (yes), lower means 0 (no).

[
  {
    "mutant_id": "I14C",
    "discrete_label": "1 (yes)"
  },
  {
    "mutant_id": "N2H",
    "discrete_label": "0 (no)"
  },
  {
    "mutant_id": "D13T",
    "discrete_label": "0 (no)"
  },
  {
    "mutant_id": "Q24R",
    "discrete_label": "0 (no)"
  },
  {
    "mutant_id": "S18R",
    "discrete_label": "0 (no)"
  },
  {
    "mutant_id": "S18Q",
    "discrete_label": "1 (yes)"
  }
]
